EXPERIMENTAL_READOUT: logP

> print(dat)
                                   molecule  reported
1  CC(C)c1cccc(C(C)C)c1NC(=O)CC(CC(c1ccccc1)c1ccccc1)=NO      3.93
2  CCCCCCCCCCCC(=O)CC(=O)Nc1c(OC)cc(OC)cc1OC      5.02

P = CC(C)c1cccc(C(C)C)c1NC(=O)CC(=O)C(c1ccccc1)c1ccccc1
Q = CCCCCCCCCCCC(=O)C(C)(C)C(=O)N(C)c1c(OC)cc(OC)cc1OC
From the recorded data, which exceeds the other in logP: P or Q ? I would appreciate it if you answered with the label of your choice.
Q
(Q: 6.67, P: 3.96)

P = CC(C)c1cccc(C(C)C)c1NC(=O)CC(=O)c1ccccc1
Q = CCCCCCCCCCCC(=O)C(C)(C)C(=O)Nc1c(OC)cc(OC)cc1OC
Which one would you say has the larger logP value: P , or Q ? Reply with the label of the item you choose.
Q

* * *

EXPERIMENTAL_READOUT: logP

> print(dat)
                                   compound  experimental.readout  reported
1  CCCCCCCC1CC(C(=O)Nc2c(C(C)C)cccc2C(C)C)C(=O)O1 (centres undefined)                  logP      4.72
2  CC(C)c1cccc(C(C)C)c1NC(=O)CC(=O)CCCCCCCCCCO                  logP       4.2
3  CC(C)c1cccc(C(C)C)c1NC(=O)CC(O)CC(c1ccccc1)c1ccccc1 (centres undefined)                  logP      4.01
4  CC(C)c1cccc(C(C)C)c1NC(=O)CC(=O)C1(c2ccccc2)CCCC1                  logP      4.55

Sourced from the SangsterLogP compilation
